biological target: CDK4/cyclin D3 (Homo sapiens); assay: Human CDK4/cyclin D3 inhibitory activity (QS S Assist CDK4/Cyclin D3_FP Kit, IMAP fluorescent polarization); conditions: read-out: CDK4 Activity symbol
Sequence (P11802 whole entry): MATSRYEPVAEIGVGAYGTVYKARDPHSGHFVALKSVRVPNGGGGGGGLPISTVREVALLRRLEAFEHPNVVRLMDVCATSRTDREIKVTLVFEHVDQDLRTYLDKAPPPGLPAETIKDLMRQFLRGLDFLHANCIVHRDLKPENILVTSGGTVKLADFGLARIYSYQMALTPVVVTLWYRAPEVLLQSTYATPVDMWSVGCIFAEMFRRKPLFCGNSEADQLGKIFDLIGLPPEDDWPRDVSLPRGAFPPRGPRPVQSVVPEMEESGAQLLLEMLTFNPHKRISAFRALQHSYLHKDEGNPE
Sequence (P30281 whole entry partner): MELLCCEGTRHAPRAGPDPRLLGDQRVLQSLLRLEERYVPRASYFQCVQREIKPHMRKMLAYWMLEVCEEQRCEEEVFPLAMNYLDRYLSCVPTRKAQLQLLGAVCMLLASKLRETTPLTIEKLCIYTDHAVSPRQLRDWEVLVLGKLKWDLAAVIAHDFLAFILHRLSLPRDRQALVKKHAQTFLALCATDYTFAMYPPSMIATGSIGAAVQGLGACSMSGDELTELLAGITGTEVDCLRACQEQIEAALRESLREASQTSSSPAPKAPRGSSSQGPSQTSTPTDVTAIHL
pIC50: −log10 of the molar value.
Outcome Measure: pIC50

compound="C[C@@H](O)c1cc2cnc(Nc3ccc4c(n3)CCN([C@H]3CC[C@@H](O)CC3)C4)nc2c(N2CCCCC2)n1 [Compound 284]" reported_measurement="7.00 to 8.00"
compound="Cc1ccccc1-c1nc(CO)cc2cnc(Nc3ccc(N4CCNCC4)cn3)nc12 [Compound 15]" reported_measurement="7.00 to 8.00"
compound="C[C@H](CO)c1cc2cnc(Nc3ccc(N4CCNCC4=O)cn3)nc2c(N2CCCCC2)n1 [Compound 192]" reported_measurement="7.00 to 8.00"

# evaluate next
### Prompt Which value of pIC50 has been reported for C[C@@H](O)c1cc2cnc(Nc3ccc4c(n3)CCN(S(=O)(=O)C3CCNCC3)C4)nc2c(N2CCCCC2)n1 [Compound 163] in the records?
### Response > 8.00
